assay_notes: Solubility of the compound at pH 7.4 after 18 hrs by UV-spectroscopy
Assay type: physicochemical
condition_context: buffer
Readings of solubility at 18 h for the listed compounds
observation_type: solubility at 18 h (µM)

CCCN1CCC(N(CC2CCCCC2)C(=O)Nc2cccc(C(F)(F)F)c2)CC1	90
CC(C)(C)N1CCC(N(Cc2ccc3c(c2)OCO3)C(=O)Nc2cccc(C(F)(F)F)c2)CC1	75
CCCCN(C(=O)Nc1cccc(C(F)(F)F)c1)C1CCN(CCC)CC1	70
CC(C)CCN1CCC(N(Cc2ccccc2)C(=O)Nc2cccc(C(F)(F)F)c2)CC1	60
CCOc1cc(CN2CCC(N(Cc3ccccc3)C(=O)Nc3cccc(C(F)(F)F)c3)CC2)cc(Cl)c1O	0.4
O=C(Nc1cccc(C(F)(F)F)c1)N(Cc1ccccc1)C1CCNCC1	71
O=C(Nc1cccc(C(F)(F)F)c1)NC1CCN(Cc2ccc(F)cc2)CC1	19
CCCN1CCC(N(CC(C)C)C(=O)Nc2cccc(C(F)(F)F)c2)CC1	96
O=C(Nc1cccc(C(F)(F)F)c1)NC1CCN(Cc2ccccc2Cl)CC1	0.3
CCCCN1CCC(N(Cc2ccccc2)C(=O)Nc2cccc(C(F)(F)F)c2)CC1	70
CCCN1CCC(N(Cc2ccccc2)C(=O)Nc2cccc(C(F)(F)F)c2)CC1	39
